Readings of MIC for the listed compounds
- System: Mycobacterium avium
- test name: Antimycobacterial activity against isoniazid, rifampicin, ethambutol and ofloxacin-resistant Mycobacterium avium My 330/88 after 14 days
- Type: functional
- test settings: My 330/88, 336 h
Quick note: give the figure in µM, leave out the unit.

Sample records with MIC:
[[record]]
molecular_string = "CCOP(=O)(OCC)Oc1ccc(Cl)cc1C(=O)Nc1ccc(Cl)c(Cl)c1"
quantity = "MIC"
observed_value = 16

[[record]]
molecular_string = "CCOP(=O)(OCC)Oc1ccc(Br)cc1C(=O)Nc1cccc(C(F)(F)F)c1"
quantity = "MIC"
observed_value = 16

[[record]]
molecular_string = "CCOP(=O)(OCC)Oc1cc(Cl)ccc1C(=O)Nc1ccc(C(F)(F)F)cc1"
quantity = "MIC"
observed_value = 4

[[record]]
molecular_string = "CCOP(=O)(OCC)Oc1ccc(Br)cc1C(=O)Nc1cccc(Cl)c1"
quantity = "MIC"
observed_value = 16

[[record]]
molecular_string = "CCOP(=O)(OCC)Oc1ccc(Br)cc1C(=O)Nc1cccc(F)c1"
quantity = "MIC"
observed_value = 32

[[record]]
molecular_string = "CCOP(=O)(OCC)Oc1ccc(Br)cc1C(=O)Nc1ccc(F)cc1"
quantity = "MIC"
observed_value = 32

[[record]]
molecular_string = "CCOP(=O)(OCC)Oc1ccc(Cl)cc1C(=O)Nc1ccc(C(F)(F)F)cc1"
quantity = "MIC"
observed_value = 4

[[record]]
molecular_string = "CCOP(=O)(OCC)Oc1ccc(Br)cc1C(=O)Nc1cccc(Br)c1"
quantity = "MIC"
observed_value = 16


Challenge: Could you tell me which MIC is on file for CCOP(=O)(OCC)Oc1ccc(Cl)cc1C(=O)Nc1cccc(C(F)(F)F)c1 ?
Response given: 16

Challenge: Which value of MIC has been reported for CCOP(=O)(OCC)Oc1ccc(Cl)cc1C(=O)Nc1ccc(F)cc1 in the records?
Response given: 62.5

Where do these numbers come from? They come from ChEMBL document CHEMBL3102784.
